- Read-out: Interleukin 6 (IL6), IL6 (gene 3569)
- protocol_description: LTEA_HepaRG_IL6: Life Technologies and Expression Analysis (LTEA) Assay for Interleukin 6 (IL6) using HepaRG (AID 2283509)
- measurement_parameters: mRNA level, 48 h; actives raise or lower the signal
Activity calls are given as the source filed them. Rule for the calls: active = hit-call score of the fitted dose curve at least 0.9, where 1 is the maximum; inactive = score below 0.9.
Result category, one only: active, inactive

Past entries and their recorded results:
O=C(OCCCCCCOC(=O)c1ccccc1)c1ccccc1 : inactive
O=C1O[C@H]([C@@H](O)CO)C(O)=C1O : inactive
O=C(O)Cn1c(=O)n(Cc2ccc(Br)cc2F)c(=O)c2ccc(Cl)cc21 : inactive
CCCCCCCCCCCO : inactive
CC/C(=C(/CC)c1ccc(O)cc1)c1ccc(O)cc1 : active
O=C=NCCCCCCN=C=O : inactive

Incoming: Kindly provide the recorded test outcome for the following compound: COCC(C)OCC(C)OCC(C)O (configuration not stated)
Outgoing: inactive

Incoming: Kindly provide the recorded test outcome for the following compound: Cc1ncc(CO)c(CO)c1O
Outgoing: inactive

Incoming: Kindly provide the recorded test outcome for the following compound: CCOC(=O)O[C@H](C)OC(=O)c1ccc2c(c1)cc(C(=O)NC1CCN(C(C)C)CC1)n2Cc1cc(-c2ccc(Cl)s2)on1
Outgoing: inactive

Incoming: Kindly provide the recorded test outcome for the following compound: COc1cccc([C@H](O)C2CCN(CCc3ccc(F)cc3)CC2)c1OC
Outgoing: inactive

Incoming: Kindly provide the recorded test outcome for the following compound: CCN(Cc1cccc(S(=O)(=O)O)c1)c1ccc(C(=C2C=CC(=[N+](CC)Cc3cccc(S(=O)(=O)O)c3)C=C2)c2ccccc2S(=O)(=O)[O-])cc1
Outgoing: inactive

Incoming: Kindly provide the recorded test outcome for the following compound: CN1C(=O)CC[C@H]1c1cccnc1
Outgoing: inactive

====

- assay_system: Retinoic acid receptor alpha (Homo sapiens) (UniProt P10276)
- Sequence (P10276 whole entry, looked up): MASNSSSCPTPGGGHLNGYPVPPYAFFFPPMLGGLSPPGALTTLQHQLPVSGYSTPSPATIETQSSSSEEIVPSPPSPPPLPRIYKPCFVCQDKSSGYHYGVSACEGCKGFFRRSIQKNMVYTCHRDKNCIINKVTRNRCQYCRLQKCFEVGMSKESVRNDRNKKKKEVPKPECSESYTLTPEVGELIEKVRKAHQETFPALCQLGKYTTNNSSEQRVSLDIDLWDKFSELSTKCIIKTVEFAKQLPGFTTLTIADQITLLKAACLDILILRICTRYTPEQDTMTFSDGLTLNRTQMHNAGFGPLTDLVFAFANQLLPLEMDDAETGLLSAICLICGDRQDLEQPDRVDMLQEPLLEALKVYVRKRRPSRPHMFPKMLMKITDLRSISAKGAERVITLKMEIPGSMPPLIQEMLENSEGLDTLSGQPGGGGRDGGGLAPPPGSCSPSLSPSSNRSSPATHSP
- protocol_description: ATG_DR5_RAR_CIS: Attagene CIS-FACTORIAL HepG2 Assay for human Retinoic Acid Receptor Alpha (RARE), DR5 submotif (AID 2282934)
- measurement_parameters: HepG2 Attagene cis-factorial RARE DR5 reporter, mRNA; actives raise or lower the signal
Active and inactive are the calls of the source. Rule for the calls: active = hit-call score of the fitted dose curve at least 0.9, where 1 is the maximum; inactive = score below 0.9.
Result category, one only: 1.0 for active, 0.0 for inactive

NC(=O)c1nc(-c2cccc(-c3cc(F)ccc3OCC(F)(F)C(F)(F)F)c2)n[nH]1 : 0.0
Cc1c2ccccc2c(C)c2c1ccc1ccccc12 : 1.0
O=C=NCCCCCCN=C=O : 0.0
COc1cccc([C@H](O)C2CCN(CCc3ccc(F)cc3)CC2)c1OC : 0.0
CO[C@H]1/C=C/O[C@@]2(C)Oc3c(C)c(O)c4c(O)c(c(/C=N/N5CCN(C)CC5)c(O)c4c3C2=O)NC(=O)/C(C)=C\C=C\[C@H](C)[C@H](O)[C@@H](C)[C@@H](O)[C@@H](C)[C@H](OC(C)=O)[C@@H]1C : 0.0

Incoming: Kindly provide the recorded test outcome for the following molecule: c1ccc(C[n+]2cccc3ccccc32)cc1
Outgoing: 0.0

Incoming: Kindly provide the recorded test outcome for the following molecule: Clc1ccccc1C(c1ccccc1)(c1ccccc1)n1ccnc1
Outgoing: 0.0

Incoming: Kindly provide the recorded test outcome for the following molecule: Cc1ccc2oc(CN(Cc3ccccc3)C(=O)Nc3c(F)cc(F)cc3F)c(-c3ccc(Cl)cc3)c2c1
Outgoing: 0.0

Incoming: Kindly provide the recorded test outcome for the following molecule: CCOC(=O)O[C@H](C)OC(=O)c1ccc2c(c1)cc(C(=O)NC1CCN(C(C)C)CC1)n2Cc1cc(-c2ccc(Cl)s2)on1
Outgoing: 1.0

Incoming: Kindly provide the recorded test outcome for the following molecule: COc1ccc2cc(S(=O)(=O)N[C@H](CC(=O)N[C@H](Cc3ccc(CN4[C@H](C)CCC[C@@H]4C)cc3)C(=O)N(C)C(C)C)c3ccc4c(c3)OCO4)ccc2c1
Outgoing: 0.0
